Every entry's value here was drawn from patent US20140221287A1.

# tested system: T1, human amylin receptor 3 (AMY3) (human, UniProt P30988 25-474; O60896 24-148)
# T1 sequence (looked up) 1: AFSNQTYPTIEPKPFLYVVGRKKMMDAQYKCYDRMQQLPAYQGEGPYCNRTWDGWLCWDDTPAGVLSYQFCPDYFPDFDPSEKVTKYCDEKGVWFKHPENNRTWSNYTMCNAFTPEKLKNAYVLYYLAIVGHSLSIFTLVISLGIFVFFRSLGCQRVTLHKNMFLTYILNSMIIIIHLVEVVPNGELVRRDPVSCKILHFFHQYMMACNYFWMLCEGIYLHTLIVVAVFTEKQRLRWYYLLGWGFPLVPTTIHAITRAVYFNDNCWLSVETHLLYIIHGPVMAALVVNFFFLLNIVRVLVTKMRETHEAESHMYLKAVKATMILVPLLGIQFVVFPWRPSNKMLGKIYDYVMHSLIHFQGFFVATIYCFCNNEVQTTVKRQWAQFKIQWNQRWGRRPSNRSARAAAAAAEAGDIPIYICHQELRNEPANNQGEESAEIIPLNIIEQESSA
# T1 sequence (looked up) 2: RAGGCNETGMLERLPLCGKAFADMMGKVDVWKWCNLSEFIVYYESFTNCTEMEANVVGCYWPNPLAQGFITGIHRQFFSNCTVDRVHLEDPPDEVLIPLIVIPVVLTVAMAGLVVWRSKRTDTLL
# assay details: cell-based or functional assay
No end group written: not given here.
readout label: EC50 (nM), cAMP accumulation (HTRF)

(a) CNTATCATQRLANFLVHSSK(mPEG40KD)NFGPILPPTNVGSNTY-NH2 (ends and bridges not checked, also called Compound 28) [Cmpd 28, [K^21(mPEG40KD)]-Cmpd 11]
(b) CNTATCATQRLANFLVHSSNNFGPILPPTNVGSK(mPEG40KD)TY-NH2 (ends and bridges not checked, also called Compound 42) [Cmpd 42, [K^35(mPEG40KD)]-Cmpd 39]
[Q] Of a versus b , which is the one with smaller reported EC50 (nM), cAMP accumulation (HTRF)? Identify your selection by its label.
[A] b
(b: 0.122 nM, a: 2.58 nM)
